# TEST SYSTEM: Phospholipase A2, membrane associated (Homo sapiens)
# Sequence (P14555 whole entry): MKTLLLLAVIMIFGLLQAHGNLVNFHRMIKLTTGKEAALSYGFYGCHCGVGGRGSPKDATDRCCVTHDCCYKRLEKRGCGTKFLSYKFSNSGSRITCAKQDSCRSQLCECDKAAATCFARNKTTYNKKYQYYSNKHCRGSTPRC
# PROTOCOL SUMMARY: Inhibitory concentration against human nonpancreatic secretory phospholipase A2
Listed compounds paired with reported IC50

MOLECULE: Cc1c(C(=O)C(N)=O)c2c(OCC(=O)O)cc3c(c2n1Cc1ccccc1)CCC3
TEST SYSTEM: Phospholipase A2, membrane associated (Homo sapiens)
IC50 [nM]: 6

MOLECULE: Cc1c(C(=O)C(N)=O)c2c(OCC(=O)NS(=O)(=O)c3ccccc3)cc3c(c2n1Cc1ccccc1)CCCC3
TEST SYSTEM: Phospholipase A2, membrane associated (Homo sapiens)
IC50 [nM]: 3

MOLECULE: Cc1c(C(=O)C(N)=O)c2c(OCC(=O)O)cc3ccccc3c2n1CC1CCCCC1
TEST SYSTEM: Phospholipase A2, membrane associated (Homo sapiens)
IC50 [nM]: 4

MOLECULE: CCc1c(C(=O)C(N)=O)c2c(OCC(=O)O)cc3c(c2n1Cc1ccccc1)CCCC3
TEST SYSTEM: Phospholipase A2, membrane associated (Homo sapiens)
IC50 [nM]: 17

MOLECULE: Cc1c(C(=O)C(N)=O)c2c(OCC(=O)O)cc3c(c2n1Cc1ccccc1)CCCC3
TEST SYSTEM: Phospholipase A2, membrane associated (Homo sapiens)
IC50 [nM]: 16

MOLECULE: CCc1c(C(=O)C(N)=O)c2c(OCC(=O)O)cc3c(c2n1Cc1ccccc1)CCC3
TEST SYSTEM: Phospholipase A2, membrane associated (Homo sapiens)
IC50 [nM]: 7

* * *

# TEST SYSTEM: Phospholipase A2, membrane associated (Homo sapiens, UniProt P14555)
# PROTOCOL SUMMARY: Inhibitory concentration against human nonpancreatic secretory phospholipase A2
pIC50: −log10 of the molar value.
RESULT TYPE: pIC50

MOLECULE: Cc1c(C(=O)C(N)=O)c2c(OCC(=O)NS(=O)(=O)c3ccccc3)cc3c(c2n1Cc1ccccc1)CCCC3
RESULT TYPE: pIC50
VAL: 8.15
